Biological target: ALPK1 (Homo sapiens (Human))
Assay: ALPK1 in vitro kinase assay (HTRF of TIFA phosphorylation)
Format: biochemical
Recorded IC50 by entry
Please state the figure in nM; there is no need to write the unit.

| Smiles Str | Experimental Target | IC50 [nM] |
| --- | --- | --- |
| O=C(NCc1cnc(N2CCNCC2)nc1)Nc1nc(C2(c3ccc(Br)cc3)CCCC2)cs1 | ALPK1 (Homo sapiens (Human)) | 45 |
| C#C[C@@](C)(c1ccc(Cl)cc1)c1csc(NC(=O)NCCS(N)(=O)=O)n1 | ALPK1 (Homo sapiens (Human)) | 54 |
| CC(C)(c1ccc(Br)cc1)c1csc(NC(=O)NCc2ccnc(N3CCNCC3)c2F)n1 | ALPK1 (Homo sapiens (Human)) | 99 |

Input: For the compound CCOc1ccc(C(C)(C)c2csc(NC(=O)NCc3ccc(N4CCNCC4)cc3)n2)cc1 , report IC50.
Output: 269

---

Listing of entries alongside the reported IC50.
Target: ALPK1 (Homo sapiens (Human), UniProt Q96QP1)
Sequence (Q96QP1 whole entry): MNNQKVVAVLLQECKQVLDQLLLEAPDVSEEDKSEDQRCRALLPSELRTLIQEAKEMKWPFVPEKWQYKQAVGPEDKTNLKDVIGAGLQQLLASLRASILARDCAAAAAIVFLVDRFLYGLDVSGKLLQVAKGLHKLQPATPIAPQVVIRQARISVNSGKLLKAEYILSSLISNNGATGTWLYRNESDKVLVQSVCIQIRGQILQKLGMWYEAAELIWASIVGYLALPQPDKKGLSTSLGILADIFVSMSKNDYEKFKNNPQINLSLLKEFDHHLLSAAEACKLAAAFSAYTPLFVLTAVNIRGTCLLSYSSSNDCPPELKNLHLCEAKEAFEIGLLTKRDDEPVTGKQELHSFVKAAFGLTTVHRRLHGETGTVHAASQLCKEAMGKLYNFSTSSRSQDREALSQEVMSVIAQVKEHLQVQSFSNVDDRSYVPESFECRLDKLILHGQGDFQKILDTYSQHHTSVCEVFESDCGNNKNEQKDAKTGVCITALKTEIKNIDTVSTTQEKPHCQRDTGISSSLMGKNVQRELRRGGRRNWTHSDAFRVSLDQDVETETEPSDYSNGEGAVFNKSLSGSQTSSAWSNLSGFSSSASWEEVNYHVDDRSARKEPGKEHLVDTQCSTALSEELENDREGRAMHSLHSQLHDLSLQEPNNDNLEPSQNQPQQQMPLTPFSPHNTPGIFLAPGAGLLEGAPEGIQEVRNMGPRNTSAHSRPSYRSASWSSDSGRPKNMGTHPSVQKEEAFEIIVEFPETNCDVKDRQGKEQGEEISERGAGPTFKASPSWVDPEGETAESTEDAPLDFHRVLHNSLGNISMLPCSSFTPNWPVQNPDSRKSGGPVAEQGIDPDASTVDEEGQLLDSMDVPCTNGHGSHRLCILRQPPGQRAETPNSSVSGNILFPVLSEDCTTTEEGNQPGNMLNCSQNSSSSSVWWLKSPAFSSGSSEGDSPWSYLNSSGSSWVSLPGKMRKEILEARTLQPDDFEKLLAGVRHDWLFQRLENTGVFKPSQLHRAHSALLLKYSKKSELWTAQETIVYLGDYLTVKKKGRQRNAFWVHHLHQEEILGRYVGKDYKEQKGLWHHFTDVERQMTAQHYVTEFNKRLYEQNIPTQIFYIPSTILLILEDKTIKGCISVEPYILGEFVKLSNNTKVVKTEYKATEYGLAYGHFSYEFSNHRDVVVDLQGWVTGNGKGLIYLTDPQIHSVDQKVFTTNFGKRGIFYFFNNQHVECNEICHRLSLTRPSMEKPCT
Assay: ALPK1 in vitro kinase assay (HTRF of TIFA phosphorylation)
Format: biochemical
From the text: In embodiments, a compound of Formula I, or a subembodiment described herein, is an inhibitor of ALPK1 as measured, for example, in an in vitro kinase assay, or an assay designed to measure the activation of downstream targets of ALPK1 pathway activation, for example NFkB transcriptional activation and the secretion of proinflammatory cytokines and chemokines, such as IL-8, which is also referred to as CXCL-8. […]

| Molecule | Observed Result |
| --- | --- |
| CC(C)(c1ccc(Br)cc1)c1csc(NC(=O)NCCCS(C)(=O)=O)n1 | 293 nM |

Input: Lab note: ALPK1 (Homo sapiens (Human), UniProt Q96QP1) assay, enter IC50 for C#C[C@@](C)(c1ccc(Br)cc1)c1csc(NC(=O)NCC(C)(C)O)n1 (stereo in doubt) here
Output: 56 nM

Input: Lab note: ALPK1 (Homo sapiens (Human), UniProt Q96QP1) assay, enter IC50 for COc1ccc(C(C)(C)c2csc(NC(=O)NCc3ccc(C(=O)NCCN)nc3)n2)cc1 here
Output: 94 nM

Input: Give reported IC50 for CC(C)(c1ccc(Br)cc1)c1csc(NC(=O)NCCCCN)n1 (ALPK1 (Homo sapiens (Human), UniProt Q96QP1))
Output: 53 nM

---

Target: ALPK1 (Homo sapiens (Human))
Assay: ALPK1 in vitro kinase assay (HTRF of TIFA phosphorylation)
Format: biochemical
The following compounds are shown together with reported log10 IC50 values.
Give log10 of IC50, with IC50 taken in nM.

As a guide, the following entries are already answered.
| Compound | Observed Result |
| --- | --- |
| COc1ccc(C(C)(C)c2csc(NC(=O)NCCCN3CCC(N)C3)n2)cc1 (centres unmarked) [Example A226] | 2.00 |
| COc1ccc(C(C)(C)c2csc(NC(=O)NCc3ccc(N4CCNCC4)c(CO)c3)n2)cc1 [Example A058] | 2.11 |

Input: Tell me its log10 IC50 given CC(C)(c1ccc(I)cc1)c1csc(NC(=O)NCc2ccc(N3CCNCC3)cc2)n1 [Example A067] as the entry.
Output: 1.45

Input: Give the reported value of log10 IC50 for this record: C#C[C@](C)(c1ccc(OC)cc1)c1csc(NC(N)=O)n1 [Example A172]
Output: 1.56

Input: For the compound CC(C)(c1ccc(Br)cc1)c1csc(NC(=O)NCCCN2CCNCC2)n1 [Example A102] , give its measured log10 IC50 value.
Output: 1.95

Input: Supply recorded log10 IC50 for COc1ccc(C(C)(C)c2csc(NC(=O)NCc3ccc(NCCO)nc3)n2)cc1 [Example A014] here.
Output: 2.20

Input: Answer with the recorded log10 IC50 of COc1ccc(C(C)(C)c2csc(NC(=O)NCc3ccc(NCCO)cc3)n2)cc1 [Example A109] only.
Output: 2.16

Input: Return the recorded log10 IC50 value; entry: CC(C)Oc1cc(CNC(=O)Nc2nc(C(C)(C)c3ccc(Br)cc3)cs2)ccc1N1CCNCC1 [Example A221]
Output: 2.16

---

Below: a set of entries, each annotated with reported pIC50.
Test system: ALPK1-dependent NFκB reporter gene activation in HEK293 cells stably expressing an NF-kB reporter (G9 cells)
Assay: NFκB gene reporter alkaline phosphatase assay
Format: cell-based
Conditions: Homo sapiens, HEK293; read-out: NFkB assay IC50
Structures can show the parent of a compound that is named as a salt.
# pIC50: negative log10 of molar concentration; output just the value

| Molecule | pIC50 |
| --- | --- |
| C#CC(C)(c1ccc(Cl)cc1)c1csc(NC(=O)N2CC(CN3CCC(N)CC3)C2)n1 (stereo not drawn) [Example A263] | 5.84 |
| C#C[C@@](C)(c1ccc(Cl)cc1)c1csc(NC(=O)N2CC(CO)C2)n1 [Example A258] | 5.88 |
| COc1ccc(C(C)(C)c2csc(NC(=O)NCCCS(=O)(=O)N3CCC(N)C3)n2)cc1 (stereo not drawn) [Example A229] | 5.64 |
| CC(C)(c1ccc(Cl)c(F)c1)c1csc(NC(=O)NCc2cnc(N3CCNCC3)nc2)n1 [Example A179] | 5.87 |
| C#C[C@@](C)(c1ccc(OC)cc1)c1csc(NC(=O)N2CC(CO)C2)n1 [Example A256] | 4.84 |

Input: Give reported pIC50 value for CC(NC(=O)Nc1nc(C(C)(C)c2ccc(Br)cc2)cs1)c1ccc(N2CCNCC2)cc1 (stereo not drawn) [Example A073]
Output: 5.55

Input: Supply measured pIC50 of COc1cc(CNC(=O)Nc2nc(C(C)(C)c3ccc(Br)cc3)cs2)ccc1N1CCNCC1 [Example A220] in your reply.
Output: 5.88

Input: Give the reported pIC50 for this molecule. CCCN1CCC(NC(=O)c2ccc(CNC(=O)Nc3nc(C(C)(C)c4ccc(OC)cc4)cs3)cn2)CC1 [Example A115]
Output: 6.08

Input: For the molecule CC1CN(c2ccc(CNC(=O)Nc3nc(C(C)(C)c4ccc(Br)cc4)cs3)cc2)CCN1 (stereo not drawn) [Example A194] , report pIC50.
Output: 5.43

Input: Name the recorded pIC50 of the item CC(C)(c1ccc(I)cc1)c1csc(NC(=O)NCc2cnc(N3CCNCC3)nc2)n1 [Example A178] in your answer.
Output: 6.04

Input: Please report the measured pIC50 for C#C[C@@](C)(c1ccc(OC)cc1)c1csc(NC(N)=O)n1 [Example A173]
Output: 6.24

Input: Output pIC50 of COc1ccc(C(C)(C)c2csc(NC(=O)NCc3ccc(N4CC5CC4CN5)c(C(N)=O)c3)n2)cc1 (stereo not drawn) [Example A064]
Output: 4.70

Input: For COc1ccc(C(C)(C)c2csc(NC(=O)NCc3ccc(C(=O)NCCN)nc3)n2)cc1 [Example A203] , write its pIC50.
Output: 5.24

Input: Provide only the value of recorded pIC50 for C#C[C@@](C)(c1ccc(Cl)cc1)c1csc(NC(N)=O)n1 [Example A252]
Output: 6.28

Input: Note down pIC50 recorded for COc1ccc(C(C)(C)c2csc(NC(=O)NCc3cc(F)c(N4CCNCC4)cc3F)n2)cc1 [Example A231, hydrochloride]
Output: 5.47

Input: Answer with the recorded pIC50 of CC(C)(c1ccc(Cl)c(F)c1)c1csc(NC(=O)NCc2ccc(N3CCNCC3)cc2)n1 [Example A031] only.
Output: 5.84

Input: In one line, give reported pIC50 of the entry CC(C)(c1ccc(Br)cc1)c1csc(NC(=O)NCCCS(C)(=O)=O)n1 [Example A130] .
Output: 5.96

Input: Tell me measured pIC50 for CC(C)(c1ccc(Br)cc1)c1csc(NC(=O)NCc2ccc(N3CCNCC3)nc2)n1 [Example A092] please.
Output: 6.24

Input: Please give measured pIC50 of the following entry: COc1ccc(C(C)(C)c2csc(NC(=O)NCc3ccc(N4CCC(N)C4)cn3)n2)cc1 (stereo not drawn) [Example A200]
Output: 6.28

Input: For the molecule COc1ccc(C(C)(C)c2csc(NC(=O)NCc3cc(F)c(N4CCNCC4)c(F)c3)n2)cc1 [Example A040] , give its measured pIC50 value.
Output: 6.30

Input: Consider the molecule C#C[C@](C)(c1ccc(Cl)cc1)c1csc(NC(=O)NC(C)CO)n1 (stereo in doubt) [Example A314] and give its recorded pIC50.
Output: 6.10

Input: // Input: CC(C)NC(=O)Nc1nc(C(C)(C)c2ccc(Br)cc2)cs1 [Example A125] . Output its pIC50 only.
Output: 5.55

Input: Provide one value: measured pIC50 of C#CC(C)(c1ccc(Cl)cc1)c1csc(NC(=O)N(CCO)CCO)n1 (stereo not drawn) [Example A253]
Output: 5.52

Input: Answer with the recorded pIC50 of C#CC(C)(c1ccc(Br)cc1)c1csc(NC(N)=O)n1 (stereo not drawn) [Example A162] only.
Output: 6.74
